# protocol text: HepG2 cytotoxicity, primary screen, cytotoxicity control for P. falciparum antimalarial project, cell-based, ATP luminescence (AID 2303);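 further: 0% = DMSO wells and 100% = digitonin-killed cells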
# reported conditions: HepG2 viability, 24-48 h, at 10 µM
Active and inactive are the calls of the source.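 How the source made its calls: active means inhibition above 50%; inactive means the rest.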
Answer with one of the outcomes active, inactive

How did this test come out for CCN(CC)CCNC(=O)c1ccc(NC(=O)c2ccc(-c3cc(NC(=O)CC4CCCC4)ccc3C)cc2)cc1 ?
inactive

How did this test come out for O=C(/C=C/c1ccc(Cl)c(Cl)c1)NCCCCCN1CCCN(C(=S)Nc2ccc(Cl)c(Cl)c2)CC1 ?
inactive

How did this test come out for Cc1[nH]c(C)c(-c2ccc(Oc3ccc(F)cc3)cc2)c(=O)c1Cl ?
inactive

How did this test come out for Cc1ccc(-c2cccc3c(NC(=O)Nc4ccc5nccc(N6CCN(C)CC6)c5c4)cccc23)cn1 ?
inactive

How did this test come out for CC(=O)N(C)c1cccc(C(=O)Nc2cccc(-c3cccc(-c4nc5ccc(C(F)(F)F)cc5[nH]4)c3)c2)c1 ?
inactive

How did this test come out for Cc1nc2sccn2c1C(=O)NCCc1ccccc1Cl ?
inactive

How did this test come out for CCNC(=O)Nc1cccc(-c2ccc(-c3nc4c(C)cccc4[nH]3)s2)c1 ?
inactive

How did this test come out for Oc1ccc(Cl)cc1CN1CCC2(CCCN(CC3CCC3)C2)C1 (stereo not given) ?
inactive

How did this test come out for CS(=O)(=O)c1ccc(-c2cc(C(F)(F)F)nc(N[C@@H]3CCCC[C@H]3OCc3ccccc3)n2)cc1 ?
inactive

How did this test come out for Cc1cc(-c2cccc(CNC3CCN(C)CC3)c2)ccc1S(=O)(=O)NCc1ccccc1 ?
active

How did this test come out for COc1ccc(NC(=O)[C@H](CC(C)C)Nc2cc(C)nc(NCCOc3ccccc3)n2)cc1 ?
inactive

How did this test come out for CN1CCC(N2CCN(Cc3cccc(-c4ccc(-c5nc6ccccc6[nH]5)cc4)c3)CC2)CC1 ?
active

How did this test come out for Cc1nc(-c2nc(N3CCC(O)CC3)ncc2-c2ccsc2)sc1C ?
inactive

How did this test come out for C=CCn1c(C)cc(C(=O)COc2ccc(S(=O)(=O)N3CCOCC3)cc2[N+](=O)[O-])c1C ?
inactive

How did this test come out for Oc1ccc(Cl)c2c1C(c1ccccc1)=NCC2 ?
inactive

How did this test come out for COC(=O)c1cc(C(O)CNC(C)CCc2cccc(F)c2)ccc1O (stereo not given) ?
inactive

How did this test come out for CN1CCc2cc(O)c(NS(=O)(=O)c3ccc(-c4ccc(Cl)cc4)cc3)cc2CC1 ?
inactive

How did this test come out for Cc1ccc(Nc2nc(C)cc(NC3CCCC3)n2)cc1 ?
inactive

How did this test come out for COC(=O)Nc1cc(C(F)(F)F)ccc1N1CCC(CNS(=O)(=O)c2ccc(OC)cc2)CC1 ?
inactive

How did this test come out for O=c1cc(NCCCN(Cc2cc3c(Cl)cc(Cl)cc3[nH]2)Cc2cc3c(Cl)cc(Cl)cc3[nH]2)[nH]c2ccccc12 ?
inactive

###

Kindly supply the reported inhibition values for the records listed here.
# test target: L-lactate dehydrogenase (Plasmodium falciparum (isolate CDC / Honduras))
# protocol text: PfLDH activity inhibition – cell lysate, 3D7 strain, counter-screen for P. falciparum growth inhibition project (AID 2304);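 further: 0% = vehicle and 100% = reference inhibitor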
# reported conditions: P. falciparum 3D7 crude extract, LDH APAD/NBT absorbance; at 2 µM; hits give high values
Answer with a number only, understood to be in %.

Given the compound O=C(Nc1ccc(-c2nc3ccccc3[nH]2)cc1)c1cncc(Br)c1 , what is its reported inhibition?
1

Given the compound Nc1ncc(-c2ccc(F)cc2)cc1-c1nc2ccc(Cl)cc2[nH]1 , what is its reported inhibition?
0

Given the compound COc1cc2cc(Cc3cnc(N)nc3N)ccc2c(OC)c1OC , what is its reported inhibition?
7

Given the compound N#CC(NC(=O)C=Cc1ccccc1)c1ccccc1 (stereo unspecified) , what is its reported inhibition?
-8

Given the compound N#Cc1c(N)nc(SCC(=O)Nc2cc(C(F)(F)F)ccc2Cl)c(C#N)c1-c1cccs1 , what is its reported inhibition?
-4

Given the compound CN(CCON1C(N)=NC(N)=NC1(C)C)c1ccccc1 , what is its reported inhibition?
1

Every entry's value here was drawn from PubChem BioAssay.
